molecular target: Adenosine A2 receptor (Rattus norvegicus, UniProt P29276+P30543); assay: Vasorelaxant activity for A2 Adenosine receptor as vasodilation in rat aorta
Reported EC50 values for a set of compounds

Compound	Units of measure	EC50
CCNC(=O)[C@H]1O[C@@H](n2cnc3c(N)nc(C#CC4=CCCCC4)nc32)[C@H](O)[C@@H]1O	nM	3030
CCNC(=O)[C@H]1O[C@@H](n2cnc3c(N)nc(C#CC4(N)CCCCC4)nc32)[C@H](O)[C@@H]1O	nM	779
CCNC(=O)[C@H]1O[C@@H](n2cnc3c(N)nc(C#CC4(O)CCCC4)nc32)[C@H](O)[C@@H]1O	nM	159
CCNC(=O)[C@H]1O[C@@H](n2cnc3c(N)nc(C#CCCOC4CCCCO4)nc32)[C@H](O)[C@@H]1O (some centres undefined)	nM	115
